- Test system: CD2F1 mice, L1210 leukemia ip, survival T/C
- ASSAY PROCEDURE: NCI In Vivo Anticancer Drug Screen. Data for tumor model L1210 Leukemia (intraperitoneal) in CD2F1 (CDF1) mice
- MEASUREMENT SETUP: endpoint: mean survival time; dose: 400.0 mg/kg/injection; schedule: Q01DX009 (ip); vehicle: saline with Tween-80; higher = longer survival
- Description: The antitumor activity of compounds was measured in mice bearing transplantable tumors. Survival or tumor size were measured and the results are expressed as the measurement made in the treated group (T) divided by the measurement made in the vehicle treated control group (C). The tumor model used in this assay is L1210 Leukemia (intraperitoneal) in CD2F1 (CDF1) mice
Inconclusive results and toxic doses are left out.
MEASURED ENDPOINT: T/C

>>> experimental_result("COc1ccc(Sc2cccc3c2C(=O)c2c(Sc4ccc(OC)cc4)cccc2C3=O)cc1")
"89 % of control"
>>> experimental_result("CCOC(=O)C(=Cc1ccc(O)c(OC)c1)C(=O)OCC")
"101 % of control"
>>> experimental_result("CC12C=C(C(=O)c3ccccc3)C(CC1)C2(C)C (configuration not stated)")
"97 % of control"
>>> experimental_result("C[C@]12CC[C@H](OC(=O)Cc3ccc(N(CCCl)CCCl)cc3)CC1=CC[C@@H]1[C@@H]2CC[C@]2(C)C(=O)CC[C@@H]12")
"111 % of control"
>>> experimental_result("C=C1C(=O)O[C@H]2C[C@@H](C)[C@@H]3[C@@H](O)C[C@@H](O)[C@@]3(C)C[C@H]12")
"100 % of control"
>>> experimental_result("CN(C)c1ccc(CN2CCCN(Cc3ccc(N(C)C)cc3)C2c2ccncc2)cc1")
"95 % of control"
>>> experimental_result("CC(C)(C)C1=CC(=C2C=C(C(C)(C)C)C(=O)C(C(C)(C)C)=C2)C=C(C(C)(C)C)C1=O")
"91 % of control"
>>> experimental_result("CC12NC(=O)NC1(C)NC(=O)N2 (configuration not stated)")
"86 % of control"
>>> experimental_result("CCOC(=O)CCC1(C(=O)OC)C(=O)CCCCCCC1C(=O)OC (configuration not stated)")
"93 % of control"
>>> experimental_result("COc1ccc(-c2[nH]c(=S)[nH]c(=O)c2CCO)cc1")
"92 % of control"
>>> experimental_result("O=C(Nc1ccc(F)c(Cl)c1)Oc1ccc(F)cc1Cl")
"92 % of control"
>>> experimental_result("CCOc1cc(C(F)(F)F)nc2c3c(cc(OC)c12)CCCN3CC")
"90 % of control"
>>> experimental_result("O=C1C=C(Nc2ccccc2)CCC1")
"97 % of control"
>>> experimental_result("C=C(C)C(=O)OCCO (tested in a mixture with another compound)")
"100 % of control"
>>> experimental_result("C/C(=N/Nc1ccc([N+](=O)[O-])cc1[N+](=O)[O-])c1ccccc1")
"100 % of control"
>>> experimental_result("Cc1ccc(S(=O)(=O)OCCCCCOS(=O)(=O)c2ccc(C)cc2)cc1")
"100 % of control"
>>> experimental_result("CC(C)(OC(=O)C(NC=O)C(C)(C)S)OC(=O)C(NC=O)C(C)(C)S (configuration not stated)")
"101 % of control"
>>> experimental_result("O=C(NCCc1nc(-c2nc(C(=O)O)cs2)cs1)c1ccccc1")
"96 % of control"
>>> experimental_result("CCOc1cc(/C=N/NC(=O)C(O)c2ccccc2)ccc1O (configuration not stated)")
"101 % of control"
>>> experimental_result("NS(=O)(=O)c1cc2c(cc1Cl)NCNS2(=O)=O")
"96 % of control"
>>> experimental_result("Cc1cc[n+]([O-])c(N(C(=O)c2ccccc2)C(=O)c2ccccc2)c1")
"107 % of control"
>>> experimental_result("Nc1nc(N)c(N)c(N)n1")
"93 % of control"

* * *

Quick list: T/C per entry.
- Test system: CD2F1 mice, L1210 leukemia ip, survival T/C
- ASSAY PROCEDURE: NCI In Vivo Anticancer Drug Screen. Data for tumor model L1210 Leukemia (intraperitoneal) in CD2F1 (CDF1) mice
- MEASUREMENT SETUP: endpoint: mean survival time; dose: 200.0 mg/kg/injection; schedule: Q01DX001 (ip); vehicle: Klucel (hydroxypropylcellulose) (HPC); higher = longer survival
Toxic doses and inconclusive results are not listed.
MEASURED ENDPOINT: T/C

>>> experimental_result("NNC(=O)c1ccc(C(=O)NN)cc1")
"100 % of control"
>>> experimental_result("O=C(O)CS(=O)(=O)c1ccc(Cl)cc1")
"103 % of control"
>>> experimental_result("c1ccc(N=C(C(=Nc2ccccc2)c2ccccn2)c2cccnc2)cc1")
"103 % of control"
>>> experimental_result("CC(=O)OC1C(N=[N+]=[N-])C(OC(C)=O)C(OC(C)=O)C(OC(C)=O)C1OC(C)=O (configuration not stated)")
"95 % of control"
>>> experimental_result("N#Cc1nc2c(nc1N)CCCCCCCCCC2")
"87 % of control"
>>> experimental_result("O=c1[nH]c2ccccc2c2ccccc2[nH]c(=O)c2ccccc12")
"102 % of control"
>>> experimental_result("CC(C)C1=CCC(OC(=O)N=C=Nc2ccccc2)CC1 (configuration not stated)")
"91 % of control"
>>> experimental_result("N#C/C(=C\\c1ccco1)c1ccc([N+](=O)[O-])cc1")
"95 % of control"
>>> experimental_result("Nc1ccc(NC(=O)Nc2ccccc2)cc1")
"96 % of control"
>>> experimental_result("NC(N)=NC(N)=Nc1ccc(Cl)c(Cl)c1")
"94 % of control"
>>> experimental_result("COC1OC(COC(c2ccccc2)(c2ccccc2)c2ccccc2)C(OC)C(OC)C1NC(C)=O (configuration not stated)")
"96 % of control"
>>> experimental_result("CC(=O)CC(C)(C)S(=O)(=O)Cc1ccccc1")
"96 % of control"

* * *

- System: CD2F1 mice, L1210 leukemia ip, survival T/C
- ASSAY PROCEDURE: NCI In Vivo Anticancer Drug Screen. Data for tumor model L1210 Leukemia (intraperitoneal) in CD2F1 (CDF1) mice
- MEASUREMENT SETUP: endpoint: mean survival time; dose: 75.0 mg/kg/injection; schedule: Q01DX001 (ip); vehicle: saline with Tween-80; higher = longer survival
Toxic doses and inconclusive results are not listed.
Quick list: T/C per entry.
MEASURED ENDPOINT: T/C

>>> experimental_result("CCOc1cccc(Cc2cn(Cc3cccc(NC(=O)c4ccc(S(=O)(=O)F)cc4)c3)c(=O)[nH]c2=O)c1")
"100 % of control"
>>> experimental_result("CCCCCCCCOc1nccc(N)n1")
"94 % of control"
>>> experimental_result("Nc1nc(N)c(-c2cccc(Cl)c2)c(COc2ccc(NC(=O)Nc3cccc(S(=O)(=O)F)c3)cc2)n1")
"91 % of control"
>>> experimental_result("Nc1ccc(CCc2nc(N)[nH]c(=O)c2-c2ccc(Cl)cc2)cc1")
"91 % of control"

* * *

- Tested on: CD2F1 mice, L1210 leukemia ip, survival T/C
- ASSAY PROCEDURE: NCI In Vivo Anticancer Drug Screen. Data for tumor model L1210 Leukemia (intraperitoneal) in CD2F1 (CDF1) mice
- MEASUREMENT SETUP: endpoint: mean survival time; dose: 200.0 mg/kg/injection; schedule: Q04DX002 (ip); vehicle: saline; higher = longer survival
Toxic doses and inconclusive results are not listed.
MEASURED ENDPOINT: T/C

>>> experimental_result("Nc1ccc(N)c(N)c1")
"90 % of control"
>>> experimental_result("CC1C(C)C1Cl (stereo not given)")
"94 % of control"
>>> experimental_result("O=C(O)C1CCOC1=O (stereo not given)")
"98 % of control"
>>> experimental_result("O=C(O)CCC(O)CC(=O)OCc1ccccc1 (stereo not given)")
"107 % of control"
>>> experimental_result("COc1cc2c(cc1O)-c1cc3ccc(OC)c(OC)c3c[n+]1CC2")
"104 % of control"

* * *

- Tested on: CD2F1 mice, L1210 leukemia ip, survival T/C
- ASSAY PROCEDURE: NCI In Vivo Anticancer Drug Screen. Data for tumor model L1210 Leukemia (intraperitoneal) in CD2F1 (CDF1) mice
- MEASUREMENT SETUP: endpoint: mean survival time; dose: 200.0 mg/kg/injection; schedule: Q01DX001 (ip); vehicle: saline with Tween-80; higher = longer survival
Toxic doses and inconclusive results are not listed.
Quick list: T/C per entry.
MEASURED ENDPOINT: T/C

>>> experimental_result("O=C(CCl)NC12Nc3ccccc3C1(Cc1ccccc1)CN(C1CCCCC1)C2=O (centres undefined)")
"86 % of control"
>>> experimental_result("CC(C)(CO)NC(=O)CC1CCCCC1")
"103 % of control"
>>> experimental_result("O=[N+]([O-])C1=C(c2ccccc2)SC=C(c2ccccc2)S1")
"97 % of control"
>>> experimental_result("Cc1cc(CSc2ssc(=S)c2-c2ccccc2)c(CSc2ssc(=S)c2-c2ccccc2)cc1C")
"98 % of control"
>>> experimental_result("Cc1cc(C)c(NC(=O)CC#N)cc1C")
"102 % of control"
>>> experimental_result("CCCCCCCCCCCCCCCCCCCCCC(CC)CC")
"107 % of control"
>>> experimental_result("O=C(Cc1ccccc1)SC(=O)Cc1ccccc1")
"94 % of control"
>>> experimental_result("Cc1ccccc1Nc1cc(=O)[nH]c(=O)[nH]1")
"95 % of control"
>>> experimental_result("CC(=O)OCC(OC(C)=O)C1OC(OCc2ccccc2)C(OC(C)=O)C(OC(C)=O)C1OC(C)=O (centres undefined)")
"86 % of control"
